Structures can show the parent of a compound that is named as a salt.
outcome.measure: melting point

Can you share its melting point? I mean this molecule: "CC(C)(C)c1ccc(C(=O)Nc2ccccc2C(=O)Nc2cccc(C(=N)N)c2)cc1.Cl"
194 to 196 °C

Can you share its melting point? I mean this molecule: "CCOc1ccc(C(=O)Nc2ccccc2NC(=O)c2cccc(C(=N)N)c2)cc1"
163 to 165 °C

Can you share its melting point? I mean this molecule: COc1ccc(NC(=O)c2ccccc2NC(=O)c2cccc(C(=N)N)c2)cc1 (as salt: salt)
163 to 167 °C

Can you share its melting point? I mean this molecule: "CC(C)(C)c1ccc(C(=O)Nc2ccccc2NC(=O)c2cccc(C(=N)N)c2)cc1.Cl"
196 to 198 °C

Now consider the entry below.
Can you share its melting point? I mean this molecule: "CC(C)c1ccc(C(=O)Nc2ccccc2NC(=O)c2cccc(C(=N)N)c2)cc1.Cl"
227 to 229 °C
